Target: Aβ1-42 peptide (Homo sapiens)
Sequence (P05067 672-713 limits assumed): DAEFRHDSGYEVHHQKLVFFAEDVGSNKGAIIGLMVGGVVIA
Assay: Thioflavin T spectrofluorescence assay (ThT-assay): inhibition of Aβ1-42 aggregation (% inhibition at 330 μM; IC50 from dilution series)
Details: 24 h, read-out: Inhibition at 330 μM [%], ThT assay; 330 μM small molecule, 33 μM Aβ1-42 (10:1), 24 hrs at 37° C.; mean ± standard deviation of two independent experiments

| compound | inhibition at 330 µM, % |
| --- | --- |
| Cn1cc(C2CCNCC2)c2ccc(Nc3cccc(N4CCOCC4)c3)cc21 | 91 |
| CNC1CCc2c(c3ccc(Nc4ccc(F)c(OC)c4)nc3n2C)C1 (stereo not drawn) | 94 |
| COc1ccc(Nc2ccc3c(C4CCN(C)CC4)c[nH]c3c2)cc1F | 94.4 |
| COCCNC1CCc2c(c3ccc(Nc4ccc(OC)c(OC)c4)nc3n2C)C1 (stereo not drawn) | 73.2 |
| CNC1CCc2c(c3cc(Nc4ccc5c(c4)OCCO5)cnc3n2C)C1 (stereo not drawn) | 83.3 |
| c1cc2cc(Nc3ccc4cc[nH]c4n3)cnc2[nH]1 | 86.2 |
| Cn1cc(C2CCNCC2)c2ccc(Nc3ccc4c(c3)OCO4)cc21 | 88.3 |
| c1cc2[nH]cc(C3CCNCC3)c2cc1Nc1ccc2c3c([nH]c2n1)CCC3 | 99.1 |
| Fc1ccc(Nc2ccc3c(C4CCNCC4)c[nH]c3n2)cc1F | 83.1 |
